Biological target: Non-receptor tyrosine-protein kinase TYK2 (Homo sapiens);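 further: each value is a mean of the inhibition readings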
Details: at 0.1 µM
Listing of recorded inhibition by entry.
property: inhibition (%)

INSERT INTO results (molecule, measurementtarget, measureunit, obsvalue) VALUES
  ('O=C(O[C@H]1CN[C@H](C#Cc2cc3ncnc(Nc4ccc5c(cnn5Cc5ccccc5)c4)c3s2)C1)N1CCOCC1', 'Non-receptor tyrosine-protein kinase TYK2 (Homo sapiens)', '%', 1.26),
  ('CN(C)CCNC(=O)Nc1ccc(N(C)c2ccnc(Nc3ccc(CS(C)(=O)=O)cc3)n2)cc1', 'Non-receptor tyrosine-protein kinase TYK2 (Homo sapiens)', '%', -2.14),
  ('CCOc1ccc2c(-c3ccnc(Nc4cc(OC)cc(C(F)(F)F)c4)n3)cnn2n1', 'Non-receptor tyrosine-protein kinase TYK2 (Homo sapiens)', '%', -2.65),
  ('c1ccc(-c2n[nH]cc2-c2ccnc(-c3ccc(OCCn4ccnc4)cc3)c2)nc1', 'Non-receptor tyrosine-protein kinase TYK2 (Homo sapiens)', '%', 1.04),
  ('NS(=O)(=O)c1cccc(N/C=C2\C(=O)Nc3ccccc32)c1', 'Non-receptor tyrosine-protein kinase TYK2 (Homo sapiens)', '%', -2.94),
  ('CS(=O)(=O)CCNCc1ccoc1-c1ccc2ncnc(Nc3ccc(OCc4ccccc4)cc3)c2c1', 'Non-receptor tyrosine-protein kinase TYK2 (Homo sapiens)', '%', 1.14),
  ('CC1=C(C(=O)Nc2ccc3[nH]ncc3c2)C(c2ccc(F)cc2)N=C(c2ccc(C(F)(F)F)nc2)N1 (centres undefined)', 'Non-receptor tyrosine-protein kinase TYK2 (Homo sapiens)', '%', -0.65),
  ('O=C1Nc2ccccc2/C1=C1\CCc2cc(O)ccc21', 'Non-receptor tyrosine-protein kinase TYK2 (Homo sapiens)', '%', -2.35),
  ('CN(c1ccc(NC(=O)NCCN2CCOCC2)cc1)c1ccnc(Nc2ccc(CS(C)(=O)=O)cc2)n1', 'Non-receptor tyrosine-protein kinase TYK2 (Homo sapiens)', '%', -6.06);

---

Target: Tyrosine-protein kinase Fyn (Homo sapiens)
Settings: at 0.1 µM
Description: GSK_PKIS: FYN mean inhibition at 0.1 uM [Nanosyn]
Listing of recorded inhibition by entry.
property: inhibition (%)

INSERT INTO measurements (structuresmilesstring, property, measureunit, obsvalue) VALUES
  ('O=C(Nc1n[nH]c2nnc(-c3cccnc3)cc12)C1CC1', 'inhibition', '%', 1.64),
  ('COc1cc2c(cc1Nc1nc(Nc3cccc(F)c3C(N)=O)c3cc[nH]c3n1)N(C(=O)CN1CCN(C(C)C)CC1)CC2', 'inhibition', '%', 1.51),
  ('NS(=O)(=O)c1cccc(N/C=C2\C(=O)Nc3ccccc32)c1', 'inhibition', '%', 2.53),
  ('O=C(O[C@H]1CN[C@H](C#Cc2cc3ncnc(Nc4ccc(OCc5cccc(F)c5)c(Cl)c4)c3s2)C1)N1CCOCC1', 'inhibition', '%', 3.75),
  ('CN(C)CCNC(=O)Nc1ccc(N(C)c2ccnc(Nc3ccc(CS(C)(=O)=O)cc3)n2)cc1', 'inhibition', '%', 1.66),
  ('NS(=O)(=O)c1ccc(N/N=C2\C(=O)Nc3cccc(CCc4ccncc4)c32)cc1', 'inhibition', '%', 2.64),
  ('CN1CCC(n2cnc(-c3ccc(F)cc3)c2-c2ccnc(NCCO)n2)CC1', 'inhibition', '%', 2.96),
  ('COc1cc(Nc2ncc(-c3ccccc3)o2)cc(OC)c1', 'inhibition', '%', 2.7),
  ('N#Cc1cccc(Nc2ncc(-c3ccccc3)o2)c1', 'inhibition', '%', 1.43),
  ('CNC(=O)c1ncccc1Nc1nc(Nc2cc3c(cc2OC)CCCN3C(=O)CN(C)C)nc2[nH]ccc12', 'inhibition', '%', 1.75);

Origin of values: ChEMBL document CHEMBL1961873
